B1: MYBL2 (parent)
chain: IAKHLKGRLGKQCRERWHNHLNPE

# Variants of: B1
# Test Description: protein stability index of a GFP-peptide fusion (GPS, HEK-293T) (PSI 1-6); higher = more stable;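 also: lentivirally expressed fusions sorted by FACS into six bins by GFP to DsRed ratio, PSI derived from sequencing read proportions per bin multiplied by bin number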
# Condition Info: c terminus: a fixed tail appended
Endpoint Label: protein stability index
Respond using a number only.

Reference set, count: 10
> print(dat)
                         seq.string  meas.value
 1   IAKHLKGQLGKQCRERWHNHLNPE [R8Q]        1.76
 2   IAKHLKVRLGKQCRERWHNHLNPE [G7V]        2.45
 3  IAKHLKGRLGKQCRWRWHNHLNPE [E15W]         3.6
 4  IAKHLKGRLTKQCRERWHNHLNPE [G10T]        2.16
 5  IAKHLKGRLGKQCLERWHNHLNPE [R14L]        1.63
 6  IAKHLKGRLGKQCRERWHNHLNPL [E24L]        2.54
 7  IAKHLKGRLGKQCRERWHNHLNPF [E24F]        2.82
 8  IAKHLKGRLDKQCRERWHNHLNPE [G10D]        1.83
 9  IAKHLKGRLGKQCRETWHNHLNPE [R16T]        2.13
10  IAKHLKGRLGKQCRERWHNHQNPE [L21Q]        2.47

Specify measured protein stability index for IAKHLKGRLGKQCREREHNHLNPE [W17E] .
3.22

Specify measured protein stability index for IAKHLKGRLGHQCRERWHNHLNPE [K11H] .
2.41

Specify measured protein stability index for IAKHLKGRLGKQCRENWHNHLNPE [R16N] .
2

Specify measured protein stability index for IAKHLKGRLGKQCREAWHNHLNPE [R16A] .
2.21

Specify measured protein stability index for IAKHLKGRLGKQCNERWHNHLNPE [R14N] .
2.62

Specify measured protein stability index for IAKRLKGRLGKQCRERWHNHLNPE [H4R] .
2.17
